molecular target: human oxytocin receptor (Homo sapiens, UniProt P30559); construct: host or cells: CHO cells (pcDNA3.1 vector); test: Oxytocin binding in Chinese Hamster Ovary cell membranes expressing human oxytocin receptors; details: 100 nM, CHO cell membranes, [3H]oxytocin, values without parentheses
Sequence (P30559 whole entry): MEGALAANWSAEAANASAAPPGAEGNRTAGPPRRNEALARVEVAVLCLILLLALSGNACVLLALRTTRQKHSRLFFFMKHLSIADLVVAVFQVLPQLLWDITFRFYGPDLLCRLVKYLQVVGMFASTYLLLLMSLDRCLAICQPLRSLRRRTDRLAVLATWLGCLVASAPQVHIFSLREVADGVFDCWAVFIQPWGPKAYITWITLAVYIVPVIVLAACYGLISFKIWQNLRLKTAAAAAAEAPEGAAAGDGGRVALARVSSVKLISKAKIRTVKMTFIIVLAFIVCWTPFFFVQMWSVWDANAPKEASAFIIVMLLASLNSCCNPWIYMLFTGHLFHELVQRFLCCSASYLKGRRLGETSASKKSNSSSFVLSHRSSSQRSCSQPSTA
# OT % inhibition @ 100% nM per entry

- compound: "Cc1cc(C(=O)N2Cc3ccc(C(=O)NCCCN(C)C)n3Cc3ccccc32)ccc1-c1ccccc1C(F)(F)F"
  OT % inhibition @ 100% nM: "48%"

Inquiry: Please give the documented OT % inhibition @ 100% nM of COc1cccc(-c2ccc(C(=O)N3Cc4ccc(C(=O)NCCC5CCCN5C)n4Cc4ccccc43)cc2C)c1 (centres unmarked)
Reply text: 54%

Inquiry: Please give the documented OT % inhibition @ 100% nM of COc1cccc(-c2ccc(C(=O)N3Cc4ccc(C(=O)N5CCC[C@H]5CN5CCCC5)n4Cc4ccccc43)cc2OC)c1
Reply text: 95%

Inquiry: Please give the documented OT % inhibition @ 100% nM of COc1cccc(-c2cc(OC)c(C(=O)N3Cc4ccc(C(=O)N5CC[C@@H](N(C)C)C5)n4Cc4ccccc43)cc2Cl)c1
Reply text: 89%

Inquiry: Please give the documented OT % inhibition @ 100% nM of COc1cc(C(=O)N2Cc3ccc(C(=O)N4CCC[C@H]4CN4CCCC4)n3Cc3ccccc32)ccc1-c1ccccc1C
Reply text: 97%

Inquiry: Please give the documented OT % inhibition @ 100% nM of COc1cccc(-c2cc(OC)c(C(=O)N3Cc4ccc(C(=O)N5CCN(CCN6CCOCC6)CC5)n4Cc4ccccc43)cc2Cl)c1
Reply text: 95%

Inquiry: Please give the documented OT % inhibition @ 100% nM of COc1cccc(-c2ccc(C(=O)N3Cc4ccc(C(=O)N5CCN(CCN(C)C)CC5)n4Cc4ccccc43)cc2C)c1
Reply text: 84%

Inquiry: Please give the documented OT % inhibition @ 100% nM of COc1ccccc1-c1ccc(C(=O)N2Cc3ccc(C(=O)N4CCC[C@H]4CN4CCCC4)n3Cc3ccccc32)cc1
Reply text: 100%

---

# inhibition at 0.1 µM per entry
biological target: human vasopressin V2 receptor subtype (Homo sapiens, UniProt P30518); construct: host or cells: CHO cells (pZeoSV vector); experiment: Vasopressin binding in Chinese Hamster Ovary cell membranes expressing human vasopressin V2 subtype receptors; conditions: 100 nM, CHO cell membranes, [3H]arginine vasopressin, values without parentheses
Sequence (P30518 whole entry): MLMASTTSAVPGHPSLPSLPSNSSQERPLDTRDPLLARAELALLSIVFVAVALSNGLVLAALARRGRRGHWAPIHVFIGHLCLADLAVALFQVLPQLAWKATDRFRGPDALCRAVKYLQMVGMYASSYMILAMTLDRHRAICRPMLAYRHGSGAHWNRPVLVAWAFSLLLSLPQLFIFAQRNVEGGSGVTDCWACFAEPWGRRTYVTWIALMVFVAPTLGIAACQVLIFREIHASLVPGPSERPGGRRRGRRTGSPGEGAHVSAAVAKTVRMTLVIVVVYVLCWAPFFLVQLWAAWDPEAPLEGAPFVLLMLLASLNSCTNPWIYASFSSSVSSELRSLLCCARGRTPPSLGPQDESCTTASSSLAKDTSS
All answers are understood in %, so give the number only.

Before answering, review these 5 worked examples.
- molecule: "COc1cc(-c2ccccc2C)c(Cl)cc1C(=O)N1Cc2ccc(C(=O)N[C@@H]3CN4CCC3CC4)n2Cc2ccccc21"
  experimentalTarget: "human vasopressin V2 receptor subtype (Homo sapiens, UniProt P30518)"
  valueUnit: "%"
  inhibition at 0.1 µM: 13
- molecule: "Cc1cc(C(=O)N2Cc3ccc(C(=O)N[C@@H](Cc4c[nH]cn4)C(N)=O)n3Cc3ccccc32)ccc1-c1ccccc1C(F)(F)F"
  experimentalTarget: "human vasopressin V2 receptor subtype (Homo sapiens, UniProt P30518)"
  valueUnit: "%"
  inhibition at 0.1 µM: 12
- molecule: "COc1cc(-c2ccccc2C)c(Cl)cc1C(=O)N1Cc2ccc(C(=O)N3CCN(C(C)C)CC3)n2Cc2ccccc21"
  experimentalTarget: "human vasopressin V2 receptor subtype (Homo sapiens, UniProt P30518)"
  valueUnit: "%"
  inhibition at 0.1 µM: 27
- molecule: "COc1cc(-c2ccccc2C)c(Cl)cc1C(=O)N1Cc2ccc(C(=O)N3CCN(CCN4CCOCC4)CC3)n2Cc2ccccc21"
  experimentalTarget: "human vasopressin V2 receptor subtype (Homo sapiens, UniProt P30518)"
  valueUnit: "%"
  inhibition at 0.1 µM: 34
- molecule: "COc1cccc(-c2ccc(C(=O)N3Cc4ccc(C(=O)N(C)CCCN(C)C)n4Cc4ccccc43)cc2OC)c1"
  experimentalTarget: "human vasopressin V2 receptor subtype (Homo sapiens, UniProt P30518)"
  valueUnit: "%"
  inhibition at 0.1 µM: 8

Inquiry: Please give the documented inhibition at 0.1 µM of COc1ccccc1-c1ccc(C(=O)N2Cc3ccc(C(=O)N4CCN(CCCN(C)C)CC4)n3Cc3ccccc32)cc1OC
Reply text: -4

Inquiry: Please give the documented inhibition at 0.1 µM of Cc1ccccc1-c1ccc(C(=O)N2Cc3ccc(C(=O)N4CCC(N5CCCCC5)CC4)n3Cc3ccccc32)cc1C
Reply text: 9

Inquiry: Please give the documented inhibition at 0.1 µM of COc1cc(C(=O)N2Cc3ccc(C(=O)n4ccnc4)n3Cc3ccccc32)ccc1-c1ccccc1C
Reply text: -6
